# STUDY_TARGET: recombinant mouse artemin protein (Ala112-Gly224 fragment) (Mus musculus, UniProt Q9Z0L2)
# Sequence (Q9Z0L2 112-224): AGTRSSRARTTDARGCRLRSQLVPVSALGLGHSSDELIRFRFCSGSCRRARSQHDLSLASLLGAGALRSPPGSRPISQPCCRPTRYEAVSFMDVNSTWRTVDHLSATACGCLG
# PROTOCOL_DESCRIPTION: SPR
MEASUREMENT_TYPE: Kd

binder="LU5 llama-VHH nanobody (naive) (VHH) VHH: QVQLVESGGGLVQAGASLRLSCAASGGTLVNSSMGWFRQAPGKERDFVATINWRGDTTWYGESVKGRFSISRDNAKNTVYLQMNSLNPEDTAVYYCAVYRTRYYTGRRMMSPDEYDVWGQGTQVTVSS" measurement_type=Kd observed="178 nM"
binder="LM52 llama-VHH nanobody (mutated) (VHH) VHH: QVQLVESGGGLVQAGASLRLSCAASGGTLVNSSMGWFRQAPGKERDFVATINWRGDTTWYGESVKGRFSISRDNTKNMVYLQMNSLKPEDTAVYYCAVYRTRYYTGRRMMSPDEYDVWGQGTQVTVSS" measurement_type=Kd observed="102 nM"
binder="LM41 llama-VHH nanobody (mutated) (VHH) VHH: QVQLVESGGGLVQAGGSLRLSCAASGRTLSRYAVGWFRQAPGKEREFVAVVHWNGVSTYHAEPVKGRFTISRDNAKNTVYLQMNSLKPDDTAVYYCAAATTSYVDIYTTDYDYWGQGTQVTVSS" measurement_type=Kd observed="111 nM"
binder="LU68 llama-VHH nanobody (naive) (VHH) VHH: QVQLVESGGGLVQAGGSLRLSCAASGRTLSRYAVGWFRQAPGKEREFVAVVHWNGVSTYYAEPVKGRFTISRDNAKNTVYLQMNSLKPDDTAVYYCAAATTSYVDIYTTDYDYWGQGTQVTVSS" measurement_type=Kd observed="456 nM"
